- assay_overview: modulators of HCV replicon luciferase signal, primary screen, HCV replication inhibitor project, Huh7 cells, luciferase reporter (AID 1109);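 further: huh7 hepatoma cells harbouring a luciferase neomycin HCV replicon reporter; luciferase luminescence as measure of HCV replicon replication; test concentration not given here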
- measurement_parameters: 48 h, higher = more signal
# reported z-score; entries follow
measured_endpoint: z-score

• C=C(C)C(=O)OCC1CN2[C@@H](CC[C@@H](C)[C@@H]2c2ccc(Br)cc2)C(=O)O1 (some centres undefined) = 0.159
• CON=C[C@@H](C)[C@H](OCc1ccccc1)C(C)C = -0.131
• O=c1n(Cc2cc3c(cc2Cl)OCO3)c(=O)n2n1CC[C@@H]1C(=NOC[C@@H](O)COCc3ccco3)[C@H]3O[C@H]3[C@@H](O)[C@@H]12 = -0.76
• CCN1C(=O)[C@H]2[C@H]3[C@H](O)[C@H](O)CC(=NO[C@@H](C)c4cn([C@H](CO)Cc5ccccc5)nn4)[C@@H]3CC[C@H]2C1=O = -0.262
